biological target: XIAP-BIR3 (Homo sapiens (Human)); experiment: BIR binding assay (FRET competition), XIAP BIR3; settings: fold separation (FS) for XIAP
Sequence (P98170 241-356): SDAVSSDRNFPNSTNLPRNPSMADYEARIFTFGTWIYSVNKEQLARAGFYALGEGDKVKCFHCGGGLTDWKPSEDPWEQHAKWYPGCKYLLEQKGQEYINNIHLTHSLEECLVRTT
measured parameter: XIAP BIR3 vs BIR2 separation window

# cpd smiles, recorded measurement
records = [
    ("C[C@@H]1CN(CC(=O)N2CC(C)(C)c3[nH]c(=O)c(Cc4ccc(F)cc4)cc32)[C@@H](CN2CCC(CN(C)C(=O)c3cccc(C(=O)N(C)CC4CCN(C[C@H]5CN[C@H](C)CN5CC(=O)N5CC(C)(C)c6[nH]c(=O)c(Cc7ccc(F)cc7)cc65)CC4)c3)CC2)CN1", "++++ (FS>10,000)"),
    ("Cc1c(NC(=O)[C@@H]2CN(C[C@H]3CN[C@H](C)CN3CC(=O)N3CC(C)(C)c4[nH]c(=O)c(Cc5ccc(F)cc5)cc43)CCO2)cccc1NC(=O)[C@@H]1CN(C[C@H]2CN[C@H](C)CN2CC(=O)N2CC(C)(C)c3[nH]c(=O)c(Cc4ccc(F)cc4)cc32)CCO1", "+++ (10,000>FS>1,000)"),
    ("C[C@@H]1CN(CC(=O)N2CC(C)(C)c3ncc(Nc4ccc(F)cc4)cc32)[C@@H](CN2CCO[C@H](COc3cccc(OC[C@@H]4CN(C[C@H]5CN[C@H](C)CN5CC(=O)N5CC(C)(C)c6ncc(Nc7ccc(F)cc7)cc65)CCO4)c3)C2)CN1", "+++ (10,000>FS>1,000)"),
    ("C[C@@H]1CN(CC(=O)N2CC(C)(C)c3[nH]c(=O)c(Cc4ccc(F)cc4)cc32)[C@@H](CN2CCO[C@H](C(=O)N(C)CC3CCN(C(=O)[C@@H]4CN(C[C@H]5CN[C@H](C)CN5CC(=O)N5CC(C)(C)c6[nH]c(=O)c(Cc7ccc(F)cc7)cc65)CCO4)CC3)C2)CN1", "++++ (FS>10,000)"),
]

----------
target: cIAP2-BIR3 (Homo sapiens (Human), UniProt Q13489); assay: BIR binding assay (FRET competition), cIAP2 BIR3
Sequence (Q13489 238-349): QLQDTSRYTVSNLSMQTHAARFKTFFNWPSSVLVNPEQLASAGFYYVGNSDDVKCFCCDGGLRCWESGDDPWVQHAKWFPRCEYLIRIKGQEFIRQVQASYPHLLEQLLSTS
measured parameter: IC50

# cpd smiles, recorded measurement
data = [
    ("C[C@@H]1CN(CC(=O)N2CC(C)(C)c3[nH]c(=O)c(Cc4ccc(F)cc4)cc32)[C@@H](CN2CCO[C@H](COc3ccc(Cc4ccc(OC[C@@H]5CN(C[C@H]6CN[C@H](C)CN6CC(=O)N6CC(C)(C)c7[nH]c(=O)c(Cc8ccc(F)cc8)cc76)CCO5)cc4)cc3)C2)CN1", "0.0316 to 0.501 µM"),
    ("C[C@@H]1CN(CC(=O)N2CC(C)(C)c3[nH]c(=O)c(Cc4ccc(Cl)cc4)cc32)[C@@H](CN2CCO[C@H](C(=O)NCc3ccc(CNC(=O)[C@@H]4CN(C[C@H]5CN[C@H](C)CN5CC(=O)N5CC(C)(C)c6[nH]c(=O)c(Cc7ccc(Cl)cc7)cc65)CCO4)cc3)C2)CN1", "0.00138 to 0.00794 µM"),
]

----------
target: cIAP1-BIR2 (Homo sapiens (Human), UniProt Q13490); assay: BIR binding assay (FRET competition), cIAP1 BIR2
Sequence (Q13490 173-257): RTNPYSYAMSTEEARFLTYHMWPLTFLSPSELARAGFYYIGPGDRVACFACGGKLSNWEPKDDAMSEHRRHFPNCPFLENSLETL
pIC50: −log10 of the molar value.
Entries and their pIC50 values follow.

# compound, pIC50
measured = [
    ("C[C@@H]1CN(CC(=O)N2CC(C)(C)c3[nH]c(=O)c(Cc4ccccc4)cc32)[C@@H](CN2CCO[C@H](C(=O)NCc3ccc(CNC(=O)[C@@H]4CN(C[C@H]5CN[C@H](C)CN5CC(=O)N5CC(C)(C)c6[nH]c(=O)c(Cc7ccccc7)cc65)CCO4)cc3)C2)CN1 [Compound 186]", "6.00 to 7.65"),
    ("C[C@@H]1CN(CC(=O)N2CC(C)(C)c3[nH]c(=O)c(Cc4ccc(F)cc4)cc32)[C@@H](CN2CCN(C(=O)Cc3ccccc3CC(=O)N3CCN(C[C@H]4CN[C@H](C)CN4CC(=O)N4CC(C)(C)c5[nH]c(=O)c(Cc6ccc(F)cc6)cc54)[C@H](C)C3)C[C@H]2C)CN1 [Example 7]", "6.00 to 7.65"),
    ("C[C@@H]1CN(CC(=O)N2CC(C)(C)c3[nH]c(=O)c(Cc4ccc(F)cc4)cc32)[C@@H](CN2CCO[C@H](C(=O)NCCOCCNC(=O)[C@@H]3CN(C[C@H]4CN[C@H](C)CN4CC(=O)N4CC(C)(C)c5[nH]c(=O)c(Cc6ccc(F)cc6)cc54)CCO3)C2)CN1 [Compound 138]", "5.50 to 6.00"),
    ("C[C@@H]1CN(CC(=O)N2CC(C)(C)c3ncc(Cc4ccccc4)cc32)[C@@H](CN2CCO[C@H](COc3cccc(OC[C@@H]4CN(C[C@H]5CN[C@H](C)CN5CC(=O)N5CC(C)(C)c6ncc(Cc7ccccc7)cc65)CCO4)c3)C2)CN1 [Compound 150]", "5.00 to 5.50"),
]

----------
Biological target: cIAP2-BIR2 (Homo sapiens (Human))
Sequence (Q13489 158-242): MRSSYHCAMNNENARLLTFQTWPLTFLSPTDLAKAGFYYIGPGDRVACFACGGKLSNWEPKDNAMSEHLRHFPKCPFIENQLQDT
Experiment: BIR binding assay (FRET competition), cIAP2 BIR2
Description: The BIR domain binding assays are FRET based competition assays that utilize His-tagged versions of each of the BIR2 and BIR3 domains from cIAP1, cIAP2, and XIAP (each domain assayed separately) each at a custom optimal concentration and a probe, 200 nM SMAC/DIABLO peptide […] labelled with AlexaFluor647 (part #crb 1110326h, Discovery Peptides). The assay is conducted in 50 mM HEPES, […], 1 mM CHAPS, 5% Glycerol, 1 mM DTT, in dI water with a final pH of 7.4 and final volume of 20 uL. […]
Reported IC50 by item:
measured parameter: IC50

# cpd smiles, measured parameter, recorded measurement
rows = [
    ("C[C@@H]1CN(CC(=O)N2CC(C)(C)c3[nH]c(=O)c(Oc4ccc(Br)cc4)cc32)[C@@H](CN2CCO[C@H](C(=O)NCc3ccc(CNC(=O)[C@@H]4CN(C[C@H]5CN[C@H](C)CN5CC(=O)N5CC(C)(C)c6[nH]c(=O)c(Oc7ccc(Br)cc7)cc65)CCO4)cc3)C2)CN1", "IC50", "1 to 3.16 µM"),
    ("C[C@@H]1CN(CC(=O)N2CC(C)(C)c3[nH]c(=O)c(Cc4ccc(Cl)cc4C(=O)N(C)C)cc32)[C@@H](CN2CCO[C@H](C(=O)NCc3ccc(CNC(=O)[C@@H]4CN(C[C@H]5CN[C@H](C)CN5CC(=O)N5CC(C)(C)c6[nH]c(=O)c(Cc7ccc(Cl)cc7C(=O)N(C)C)cc65)CCO4)cc3)C2)CN1", "IC50", "10 to 51.3 µM"),
]

----------
target: cIAP2-BIR3 (Homo sapiens (Human), UniProt Q13489); assay: BIR binding assay (FRET competition), cIAP2 BIR3; conditions: fold separation (FS) for cIAP2

# molecule, cIAP2 BIR3 vs BIR2 separation window
rows = [
    ("C[C@@H]1CN(CC(=O)N2CC(C)(C)c3[nH]c(=O)c(Cc4ccc(Cl)cc4Cl)cc32)[C@@H](CN2CCO[C@H](C(=O)NCc3ccc(CNC(=O)[C@@H]4CN(C[C@H]5CN[C@H](C)CN5CC(=O)N5CC(C)(C)c6[nH]c(=O)c(Cc7ccc(Cl)cc7Cl)cc65)CCO4)cc3)C2)CN1 [Compound 165]", "+++ (10,000>FS>1,000)"),
    ("C[C@@H]1CN(CC(=O)N2CC(C)(C)c3[nH]c(=O)c(Cc4ccc(F)cc4)cc32)[C@@H](CN2CCO[C@H](COCCCCCOC[C@@H]3CN(C[C@H]4CN[C@H](C)CN4CC(=O)N4CC(C)(C)c5[nH]c(=O)c(Cc6ccc(F)cc6)cc54)CCO3)C2)CN1 [Example 82]", "+++ (10,000>FS>1,000)"),
]

----------
Entries and their pIC50 values follow.
molecular target: cIAP1-BIR2 (Homo sapiens (Human)); test: BIR binding assay (FRET competition), cIAP1 BIR2
pIC50: −log10 of the molar value.

# compound, pIC50
data = [
    ("C[C@@H]1CN(CC(=O)N2CC(C)(C)c3[nH]c(=O)c(Cc4ccc(F)cc4)cc32)[C@@H](CN2CCN(CCc3cn(CCC(=O)N4CCN(C[C@H]5CN[C@H](C)CN5CC(=O)N5CC(C)(C)c6[nH]c(=O)c(Cc7ccc(F)cc7)cc65)[C@H](C)C4)nn3)C[C@H]2C)CN1 [Compound 154]", "5.50 to 6.00"),
    ("C[C@@H]1CN(CC(=O)N2CC(C)(C)c3[nH]c(=O)c(Cc4ccc(F)cc4)cc32)[C@@H](CN2CCO[C@H](C(=O)N3CCCN(C(=O)[C@@H]4CN(C[C@H]5CN[C@H](C)CN5CC(=O)N5CC(C)(C)c6[nH]c(=O)c(Cc7ccc(F)cc7)cc65)CCO4)CC3)C2)CN1 [Example 131]", "5.50 to 6.00"),
]
